- System: Plasmodium berghei
- Procedure summary: Screen against P. berghei liver stage (PbLuc), transformed with Luciferase, at 10uM
- Type: functional, HepG2
- Test settings: tested at 10 uM
In all, about 69,000 compounds went through this assay and about 8,600 (12%) showed an effect of 50% or more. The sample holds strong results, similar compounds and a random draw of the others, so the mix is not that of the screen.
Value kind: INHIBITION (%)
Numbers only, in %.

Below: 4 molecules and their reported INHIBITION.
>  <Molecule>
O=C1CN(Cc2nnc(-c3ccc(Br)cc3)o2)CCN1

>  <Value kind>
INHIBITION

>  <Quantity unit>
%

>  <Recorded result>
10.8

$$$$
>  <Molecule>
CSc1ncnc(NCc2ccco2)c1C#N

>  <Value kind>
INHIBITION

>  <Quantity unit>
%

>  <Recorded result>
9

$$$$
>  <Molecule>
CCc1n[nH]c(C2CN(C(=O)c3ccc4c(c3)CCC4)CCO2)n1 (stereo unspecified)

>  <Value kind>
INHIBITION

>  <Quantity unit>
%

>  <Recorded result>
-12.1

$$$$
>  <Molecule>
Cc1nc(C2CCCN(C(=O)COCCc3ccccc3)C2)no1 (stereo unspecified)

>  <Value kind>
INHIBITION

>  <Quantity unit>
%

>  <Recorded result>
11.2

$$$$

Give one value of INHIBITION per listed molecule.
1. Cc1ccc(NC(=O)N(C)Cc2cnn(C)c2)c(C)c1
2. CNC(=O)NC(C)c1nc(-c2ccc(Br)cc2)no1 (stereo unspecified)
3. CN(Cc1ncnn1C)C(=O)Nc1ccc(OC(F)F)cc1
4. CCc1cc(=O)[nH]c(-c2ccc(NCCC(C)O)nc2)n1 (stereo unspecified)
5. CN(C)CCCC(=O)N1C[C@@H]2CC[C@H]1CN(Cc1ccccc1)C2
6. CC(C)c1nnsc1CNC(=O)C1CCN(C(=O)C2CC2)CC1
7. Cn1cc(C(=O)N[C@H]2CN(Cc3nccs3)[C@@H]3CCCO[C@H]23)cn1

Out:
1. -29.1
2. 47.8
3. 21.2
4. 36.9
5. 11.2
6. 14.9
7. -8.94
